Record form. Attribute: growth. Fill in for each entry.
Test system: COLO 205 colon
ASSAY OVERVIEW: NCI-60 one-dose screen, 48 h (100 = growth as untreated, 0 = no growth, -100 = all killed)
REPORTED CONDITIONS: 10 µM unless noted
About 83,000 compounds went through this panel and 20% of them were active in at least one assay; those are over-represented in the sample as a whole.
Numbers only, in %.

The examples below pair each entry with its known result.
{"CHEMICAL SMILES": "Cc1nn(-c2ccccc2)c2nc3nc4c(c(N)c3c(-c3ccc(Cl)cc3)c12)CCCC4", "UNIT ABBREVIATION": "%", "growth": 94.4}
{"CHEMICAL SMILES": "O=C(Nc1ccccc1O)c1ccc(NS(=O)(=O)c2cccc3cccnc23)cc1", "UNIT ABBREVIATION": "%", "growth": 47.8}
{"CHEMICAL SMILES": "COc1ccc(-c2nc3sc(C)nn3c2-c2nc3cc(C)c(C)cc3[nH]2)cc1", "UNIT ABBREVIATION": "%", "growth": 115}
{"CHEMICAL SMILES": "Nc1nc(N)c(C=Nc2ccc(Br)cc2)c(Nc2ccc(Br)cc2)n1", "UNIT ABBREVIATION": "%", "growth": 117}

Now let's try a different one.
Data request: Can you share its growth? I mean this molecule: COc1cc2nc(SCc3cc(OC)c(OC)c(OC)c3)n(-c3ccccc3OC)c(=O)c2cc1OC
Data returned: 118

###

Tested on: SN12C renal
ASSAY OVERVIEW: NCI-60 one-dose screen, 48 h
REPORTED CONDITIONS: 10 µM unless noted
The panel holds about 83,000 compounds, 20% with a hit somewhere; the sample as a whole holds those more often. The source made the active and inactive calls. How the source made its calls: active means growth percent below 10; inactive means the rest.
Can you answer with just one of these options? Yes = active, No = inactive

{"COMPOUND": "COc1ccc(S(=O)(=O)c2ccc(C(N)=O)cc2)cc1NC(=O)c1[nH]c(C)c2c1CCCCC2=O", "TEST SYSTEM": "SN12C renal", "GROUP": "No"}
{"COMPOUND": "Nc1ccccc1-c1n[nH]c(=O)[nH]c1=O", "TEST SYSTEM": "SN12C renal", "GROUP": "No"}
{"COMPOUND": "O=C1/C(=C/c2ccc(Oc3ccccc3)cc2)N=C(c2ccccc2)N1CCc1cccs1", "TEST SYSTEM": "SN12C renal", "GROUP": "No"}
{"COMPOUND": "COc1ccc(-c2c3c(N)c4c(nc3nc3c2c(C)nn3-c2ccccc2)CCCC4)cc1", "TEST SYSTEM": "SN12C renal", "GROUP": "No"}
{"COMPOUND": "COC(=O)[C@@H]1CCCN1C(=O)[C@@H]1CCCN1C(=O)[C@@H](Cc1c[nH]c2ccccc12)NC(=S)Nc1cc(C(F)(F)F)cc(C(F)(F)F)c1", "TEST SYSTEM": "SN12C renal", "GROUP": "No"}
{"COMPOUND": "COc1ccc(Nc2nc(NCCNc3ccnc4cc(Cl)ccc34)nc(N3CCOCC3)n2)cc1", "TEST SYSTEM": "SN12C renal", "GROUP": "No"}
{"COMPOUND": "CCCCCCCCCCCCCCNc1nc(CO)ncc1-c1ccc(C(F)(F)F)cc1", "TEST SYSTEM": "SN12C renal", "GROUP": "No"}
{"COMPOUND": "COc1ncc(F)c(OC)n1", "TEST SYSTEM": "SN12C renal", "GROUP": "No"}

Data request: Test call for this compound, please: CC(C)OC1=C(Cl)C(=O)c2ccccc2C1=O
Data returned: No

Data request: Test call for this compound, please: Cc1ccccc1-c1cc(-c2ccc(Br)s2)[nH]c(=O)c1C#N
Data returned: No

Reference for the values: PubChem BioAssay (NCI)
